Species: Rattus norvegicus
Procedure details: Relative bioavailability of prodrugs in rat
Type: ADME, organism-based
Applied conditions: in vivo
Measured endpoint: Relative F%

Example entries begin here.
Molecule: C[C@@H](N)C(=O)OCO/C(=C1/C(=O)N(C(N)=O)c2cc(Cl)c(F)cc21)c1cccs1.Cc1ccc(S(=O)(=O)O)cc1
Measured endpoint: Relative F%
Endpoint result: 80

Molecule: NC(=O)N1C(=O)/C(=C(\OC(=O)c2cccc(C(=O)O)c2)c2cccs2)c2cc(F)c(Cl)cc21
Measured endpoint: Relative F%
Endpoint result: 4.2

Molecule: CCOC(=O)OC(C)O/C(=C1/C(=O)N(C(N)=O)c2cc(Cl)c(F)cc21)c1cccs1 (stereo not drawn)
Measured endpoint: Relative F%
Endpoint result: 26

Molecule: CCC(=O)O/C(=C1\C(=O)N(C(N)=O)c2cc(Cl)c(F)cc21)c1cccs1
Measured endpoint: Relative F%
Endpoint result: 6.6

Molecule: Cc1ccc(S(=O)(=O)O)cc1.NCC(=O)OCO/C(=C1/C(=O)N(C(N)=O)c2cc(Cl)c(F)cc21)c1cccs1
Measured endpoint: Relative F%
Endpoint result: 46

Molecule: CCC(OCc1ccccc1)C(=O)OCO/C(=C1/C(=O)N(C(N)=O)c2cc(Cl)c(F)cc21)c1cccs1 (stereo not drawn)
Measured endpoint: Relative F%
Endpoint result: 86

(A) NC(=O)N1C(=O)/C(=C(/OCOC(=O)c2ccccc2)c2cccs2)c2cc(F)c(Cl)cc21
(B) NC(=O)N1C(=O)/C(=C(\OC(=O)c2ccccn2)c2cccs2)c2cc(F)c(Cl)cc21
Inquiry: Smaller Relative F% value, A vs B ? The response must carry the label of the picked entry.
Reply text: A
